Species: Mus musculus
assay_comment: Inhibition of Wnt/beta-catenin pathway in mouse L Wnt3A cells at 10 uM after 48 hrs by TOP-flash dual reporter gene assay relative to control
Type: cell-based
Recorded measurements of inhibition, one per entry
value_kind: inhibition (%)

* O=C(CCCN1C(=O)c2cccc(Cl)c2C1=O)Nc1ccc(-c2ccccc2)cn1 | 46
* O=C(CCCN1C(=O)c2cc(Cl)c(Cl)cc2C1=O)Nc1ccc(-c2ccccc2)cn1 | -8
* O=C(CCCN1C(=O)c2ccc(F)c(F)c2C1=O)Nc1ccc(-c2ccccc2)cn1 | 21
* O=C(CCCN1C(=O)c2c(F)ccc(F)c2C1=O)Nc1ccc(-c2ccccc2)cn1 | 37
* Cc1ccc2c(c1)C(=O)N(CCCC(=O)Nc1ccc(-c3ccccc3)cn1)C2=O | 20
* O=C(CCCN1C(=O)c2ccc(Br)cc2C1=O)Nc1ccc(-c2ccccc2)cn1 | 18
* Cc1cccc2c1C(=O)N(CCCC(=O)Nc1ccc(-c3ccccc3)cn1)C2=O | 61
* CC(C)(C)c1ccc2c(c1)C(=O)N(CCCC(=O)Nc1ccc(-c3ccccc3)cn1)C2=O | 23
* Cc1cc(-c2ncc(CC(=O)Nc3ccc(-c4cnccn4)cn3)cc2C)ccn1 | 93

###

Organism: Mus musculus
assay_comment: Inhibition of Wnt/beta-catenin pathway in mouse L Wnt3A cells at 10 uM after 48 hrs by TOP-flash dual reporter gene assay relative to control
Assay type: cell-based
value_kind: inhibition (%)

* Cc1cccc2c1C(=O)N(CCC(=O)Nc1ccc(-c3ccccc3)cn1)C2=O | 29
* Cc1cccc2c1C(=O)N(CC(=O)Nc1ccc(-c3ccccc3)cn1)C2=O | 76
* O=C(CCCN1C(=O)c2ccc(F)cc2C1=O)Nc1ccc(-c2ccccc2)cn1 | 20
* O=C(CCCN1C(=O)c2ccc([N+](=O)[O-])cc2C1=O)Nc1ccc(-c2ccccc2)cn1 | 19
* O=C(CCCN1C(=O)c2cccc([N+](=O)[O-])c2C1=O)Nc1ccc(-c2ccccc2)cn1 | 17

###

Species on record: Mus musculus
assay_comment: Inhibition of Wnt/beta-catenin pathway in mouse L Wnt3A cells at 10 uM after 48 hrs by TOP-flash dual reporter gene assay relative to control
Format: cell-based
value_kind: inhibition (%)

• O=C(CCCN1C(=O)c2ccccc2C1=O)Nc1ccc(-c2ccccc2)cn1 = 34
• O=C(CCCN1C(=O)c2ccc(Cl)cc2C1=O)Nc1ccc(-c2ccccc2)cn1 = 22
• O=C(CCCN1C(=O)c2cccc(F)c2C1=O)Nc1ccc(-c2ccccc2)cn1 = 44
• Cc1cccc2c1C(=O)N(C(C)C(=O)Nc1ccc(-c3ccccc3)cn1)C2=O (stereo unspecified) = 39
• O=C(CCCN1C(=O)c2ccc(C#Cc3ccccc3)cc2C1=O)Nc1ccc(-c2ccccc2)cn1 = 7
• O=C(CCCN1C(=O)c2c(Cl)c(Cl)c(Cl)c(Cl)c2C1=O)Nc1ccc(-c2ccccc2)cn1 = -5

###

assay_comment: Inhibition of Wnt/beta-catenin pathway in mouse L Wnt3A cells after 48 hrs by TOP-flash dual reporter gene assay
Type: cell-based
applied_conditions: L Wnt-3A
Recorded measurements of IC50, one per entry
value_kind: IC50 (µM)

* Cc1cccc2c1C(=O)N(CC(=O)Nc1ccc(-c3ccccc3)cn1)C2=O | 0.28
* Cc1cc(-c2ncc(CC(=O)Nc3ccc(-c4cnccn4)cn3)cc2C)ccn1 | 0.00057
* Cc1cccc2c1C(=O)N(CCCC(=O)Nc1ccc(-c3ccccc3)cn1)C2=O | 2.79
